# System: K562
# test-summary: Growth inhibition of human K562 cells
# Format: functional
measured-attribute: GI50 (µg/mL)

>>> recorded_value("CC(=O)O[C@H]1C(=O)[C@@]2(C)[C@H]([C@H](OC(=O)c3ccccc3)[C@]3(O)C[C@H](OC(=O)[C@H](O)[C@@H](NC(=O)c4ccccc4)c4ccccc4)C(C)=C1C3(C)C)[C@]1(OC(C)=O)CO[C@@H]1C[C@@H]2O [PACLITAXEL]")
0.01
>>> recorded_value("COC(=O)[C@]1(C)CCC[C@@]2(C)[C@@H]3CC[C@H]4C[C@]3(CC[C@@H]21)C[C@]4(O)CO")
27.7
>>> recorded_value("C[C@@]12CCC[C@@](C)(C(=O)O)[C@H]1CC[C@@]13C[C@H](CO)[C@@H](CC[C@H]12)C3")
32.8
>>> recorded_value("C[C@@]12CCC[C@@](C)(C=O)[C@H]1CC[C@]13C[C@](O)(CC[C@H]12)[C@](O)(CCl)C3")
29.2
>>> recorded_value("COC(=O)[C@]1(C)CCC[C@@]2(C)C3=CC[C@H]4C[C@]3(CC[C@H]12)C[C@]4(O)CO")
26.7
>>> recorded_value("C[C@@]1(CO)CCC[C@]2(C)[C@@H]1CC[C@@]13C[C@H](CO)[C@@H](CC[C@H]12)C3")
13.6
>>> recorded_value("C=C1C[C@@]23CC[C@@H]4[C@](C)(CO)CCC[C@@]4(C)[C@@H]2CC[C@H]1C3")
6.8
>>> recorded_value("C=C1C[C@]23CC[C@H]4[C@@](C)(CCC[C@@]4(C)C=O)[C@@H]2CC[C@@]1(O)C3")
10.5
>>> recorded_value("C[C@@]12CCC[C@@](C)(C=O)[C@H]1CC[C@@]13C[C@@H](CC[C@H]12)[C@@](O)(CO)C3")
50
>>> recorded_value("C=C1C[C@]23CC[C@@H]4[C@](C)(CO)CCC[C@@]4(C)[C@@H]2CC[C@@]1(O)C3")
50
>>> recorded_value("C[C@@]12CCC[C@@](C)(C=O)[C@H]1CC[C@@]13CC(=O)[C@](CO)(CC[C@H]12)C3")
50

Source of measurements: ChEMBL document CHEMBL1148912
